# study-system: TSPO (Homo sapiens, UniProt P30536)
# Sequence (P30536 2-169): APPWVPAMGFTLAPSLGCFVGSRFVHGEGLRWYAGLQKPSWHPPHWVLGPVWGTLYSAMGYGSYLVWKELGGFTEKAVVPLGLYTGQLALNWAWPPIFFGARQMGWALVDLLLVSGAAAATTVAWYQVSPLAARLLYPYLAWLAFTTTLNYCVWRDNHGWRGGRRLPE
# procedure-text: biochemical
property-label: Ki (nM)

A = CC(C)N(C)C(=O)[C@H]1CCCc2c1c1ccccc1n2CCF [Compound 2 E1]
B = CCN(Cc1ccccc1)C(=O)[C@@H]1CCCc2c1c1ccccc1n2CCF [Compound 1 E2]
C = CC(C)N(C)C(=O)[C@@H]1CCCc2c1c1ccccc1n2CCF [Compound 2 E2]
D = CCN(Cc1ccccc1)C(=O)[C@H]1CCCc2c1c1ccccc1n2CCF [Compound 1 E1]
Task item: # ascending order, key=Ki A complete answer lists every label in the requested sequence.
Reply: D, A, B, C
(D: 5 nM, A: 23 nM, B: 125 nM, C: 402 nM)

----------
# study-system: TSPO (Homo sapiens, UniProt P30536, T147A)
# Sequence (P30536 2-169 T147A): as the sequence (P30536 2-169) above, with T146A counted along it
# procedure-text: biochemical
property-label: Ki (nM)

P = CCN(Cc1ccccc1)C(=O)[C@@H]1CCCc2c1c1ccccc1n2CCF [Compound 1 E2]
Q = CC(C)N(C)C(=O)[C@H]1CCCc2c1c1ccccc1n2CCF [Compound 2 E1]
R = CC(C)N(C)C(=O)[C@@H]1CCCc2c1c1ccccc1n2CCF [Compound 2 E2]
Task item: Could you list the above compounds by Ki, going from the biggest number down? Would you mind listing the labels in the order asked for?
Reply: R, Q, P
(R: 83 nM, Q: 24 nM, P: 4 nM)

----------
# study-system: TSPO (Homo sapiens, UniProt P30536)
# procedure-text: biochemical
pKi: −log10 of the molar value.
property-label: pKi

P = CCN(Cc1ccccc1)C(=O)[C@H]1CCCc2c1c1ccccc1n2CCF (racemic)
Q = CC(C)N(C)C(=O)[C@H]1CCCc2c1c1ccccc1n2CCF (racemic)
Task item: Determine, for P and Q , which has the greater value of pKi. Mark your answer with the label of the selected entry.
Reply: P

----------
# study-system: TSPO (Homo sapiens, UniProt P30536, T147A)
# procedure-text: biochemical
property-label: Ki (nM)

1 = CC(C)N(C)C(=O)[C@H]1CCCc2c1c1ccccc1n2CCF (racemic)
2 = CCN(Cc1ccccc1)C(=O)[C@H]1CCCc2c1c1ccccc1n2CCF (racemic)
Task item: Which record would sort first by descending Ki, 1 or 2 ? Use the label to indicate which entry you chose.
Reply: 1
(1: 43.8 nM, 2: 1.85 nM)
